Listed compounds paired with reported Kd
TARGET OR TEST SYSTEM: Nucleic Acid
ASSAY OVERVIEW: Binding affinity to Bacillus subtilis 168 1A1 lysine riboswitch 179 lysc by in-line probing assay
Format: nucleic-acid assay, Bacillus subtilis subsp. subtilis str. 168
Use µM as the unit, but write only the number.

| COMPOUND | UNIT TEXT | Kd |
| --- | --- | --- |
| N=C(N)NCCCC[C@H](N)C(=O)O | µM | 7 |
| NC/C=C/CC(N)C(=O)O (racemic) | µM | 0.97 |

Please turn your attention to the following entry.
# input compound: NCCOC[C@H](N)C(=O)O ; wanted: its Kd
13

----------
System: Bacillus subtilis
ASSAY OVERVIEW: Antibacterial activity against wild type Bacillus subtilis 168 1A1 assessed as inhibition of viable spore formation at 2 mM after 22 to 24 hrs
Assay type: functional, subsp. subtilis str. 168 1A1
MEASURED PARAMETER: Activity

| MOLECULE | Activity |
| --- | --- |
| NCCOC[C@H](N)C(=O)O | 6% |
| Nc1cc(C[C@H](N)C(=O)O)ccc1O | 75% |
| NCCS(=O)(=O)C[C@H](N)C(=O)O | 0% |

Endpoint output: Activity of NCC(=O)CCC(N)C(=O)O (racemic) . Value?
47%

----------
TARGET OR TEST SYSTEM: Nucleic Acid
ASSAY OVERVIEW: Binding affinity to Bacillus subtilis 168 1A1 lysine riboswitch 179 lysc by in-line probing assay
Format: nucleic-acid assay, Bacillus subtilis subsp. subtilis str. 168
Measured pKd, listed per entry for reference.
Would you please state pKd, meaning minus log10 of the concentration in mol/L, as a bare number?

Look at this molecule and give its reported pKd. NCCCC[C@H](N)C(=O)O [LYSINE]
6.44

Which measured pKd value corresponds to CC(=N)NCCCC[C@H](N)C(=O)O [L-NIL] ?
4.96

Consider the molecule shown here: NCCS(=O)(=O)C[C@H](N)C(=O)O What is its recorded pKd?
5.60

----------
TARGET OR TEST SYSTEM: Nucleic Acid
ASSAY OVERVIEW: Binding affinity to lysine riboswitch 179 lysc of Bacillus subtilis 168 M2 harboring adenosine deletion within 95 to 97 sequence in loop E of P2 motif
Type: nucleic-acid assay, Bacillus subtilis subsp. subtilis str. 168
MEASURED PARAMETER: pKd
By convention, pKd is the negative base-10 log of a molar concentration.

| RECORD SMILES | pKd |
| --- | --- |
| NCCS(=O)(=O)C[C@H](N)C(=O)O | 4.62 |
| NCCOC[C@H](N)C(=O)O | 4.12 |

Note: attention shifts to another entry.
For the record NCCCC[C@H](N)C(=O)O , what value of pKd is listed for Nucleic Acid?
5.54

----------
TARGET OR TEST SYSTEM: Nucleic Acid
ASSAY OVERVIEW: Binding affinity to Bacillus subtilis 168 1A1 lysine riboswitch 179 lysc
Format: nucleic-acid assay, Bacillus subtilis subsp. subtilis str. 168
MEASURED PARAMETER: Kd

Look up Kd: NCCS(=O)(=O)C[C@H](N)C(=O)O
13 µM

// returns reported Kd for input NCCCC[C@H](N)C(=O)O
1.7 µM

May I ask what Kd has been recorded for NCCOC[C@H](N)C(=O)O ?
26 µM
